target: human-KAT6A (MYST domain 507-778 aa) (Homo sapiens (Human), UniProt Q92794); assay: KAT6A biochemical assay (TR-FRET); conditions: TR-FRET; histone H4 peptide 200 nM, acetyl-CoA 600 nM; read-out: KAT6A IC50
Sequence (Q92794 507-778): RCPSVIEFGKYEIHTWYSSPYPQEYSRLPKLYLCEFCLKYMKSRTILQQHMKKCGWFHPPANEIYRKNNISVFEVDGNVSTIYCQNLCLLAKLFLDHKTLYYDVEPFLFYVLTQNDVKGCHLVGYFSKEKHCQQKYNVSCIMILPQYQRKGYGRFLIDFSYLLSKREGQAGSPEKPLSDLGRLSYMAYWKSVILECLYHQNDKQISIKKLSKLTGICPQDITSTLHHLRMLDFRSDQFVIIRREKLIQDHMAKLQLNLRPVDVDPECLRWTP
IC50 less than 0.01 µM is y; IC50 greater than or equal to 0.01 µM is n.

Input "[2H]C([2H])([2H])Oc1cc(OC([2H])([2H])[2H])c(S(=O)(=O)NC(=O)c2ccc(Cn3cccn3)c(OC)n2)c(OC([2H])([2H])[2H])c1" ; condition: IC50 strictly below 0.01 µM. Does it hold?
y

Input "COc1cccc(OC)c1S(=O)(=O)NC(=O)c1ccc(Cn2cccn2)c(C(F)F)n1" ; condition: IC50 strictly below 0.01 µM. Does it hold?
n

Input COc1ccc(C)c(OC)c1[S@](=N)(=O)NC(=O)c1ccc(Cn2cccn2)c(OC)n1 [Compound 301a] ; condition: IC50 strictly below 0.01 µM. Does it hold?
n

Input "COc1cc(Cn2cccn2)ccc1C(=O)NS(=O)(=O)c1cc2c(cc1OC)CCC2" ; condition: IC50 strictly below 0.01 µM. Does it hold?
n

Input "COc1ccc(C(C)(C)C)cc1S(=O)(=O)NC(=O)c1ccc(Cn2cccn2)c(Br)c1" ; condition: IC50 strictly below 0.01 µM. Does it hold?
n

Input "COc1cc(C(=O)NS(=O)(=O)c2c(OC)ccc(C3CC3)c2OC)ccc1Cn1cccn1" ; condition: IC50 strictly below 0.01 µM. Does it hold?
y

----------
biological target: human-KAT6A (MYST domain 507-778 aa) (Homo sapiens (Human), UniProt Q92794); assay: KAT6A biochemical assay (TR-FRET); details: TR-FRET; histone H4 peptide 200 nM, acetyl-CoA 600 nM; read-out: KAT6A IC50
Would you kindly list IC50 for each of these molecules?
Give a bare numeral; the unit µM is implied.

Quick note, IC50 for "COc1ccc(C(C)(C)C)cc1S(=O)(=O)NC(=O)c1ccc(Cn2cccn2)c(C(F)(F)F)c1" landed at 0.01

Quick note, IC50 for "COc1cc(C(=O)NS(=O)(=O)c2c(OC)cccc2OC)ncc1Cn1cccn1" landed at 0.14

Quick note, IC50 for "COc1cccc(OC)c1S(=O)(=O)NC(=O)c1ccc(Cn2cccn2)c(C(F)(F)F)c1" landed at 0.03

Quick note, IC50 for "CCc1nc(C(=O)NS(=O)(=O)c2c(OC)cccc2OC)ccc1Cn1cccn1" landed at 0.014

----------
target: human-KAT6A (MYST domain 507-778 aa) (Homo sapiens (Human), UniProt Q92794); test: KAT6A biochemical assay (TR-FRET); details: TR-FRET; histone H4 peptide 200 nM, acetyl-CoA 600 nM; read-out: KAT6A IC50
METRIC_NAME: pIC50
// scale note: pIC50 = -log10(conc_M); give the bare number

Quick note, pIC50 for "COc1cccc(OC)c1S(=O)(=O)NC(=O)c1ccc(Cn2cccn2)c(OC(F)F)c1" landed at 8.00

Quick note, pIC50 for "COc1cc(C(=O)NS(=O)(=O)c2cc(C(F)(F)F)ccc2OC)ccc1Cn1cccn1" landed at 7.80

Quick note, pIC50 for "COc1cc(C(=O)NS(=O)(=O)c2cc(O)ccc2OC)ccc1Cn1cccn1" landed at 7.62

Quick note, pIC50 for "COc1cc(C(=O)NS(=O)(=O)c2c(OC)cccc2-n2cccn2)ccc1Cn1cccn1" landed at 6.70

Value source: patent US20250136553A1
